assayed-target: T1, HLA-A*24:02 molecule
T1 construct: MHC class I molecule on C1R-A24 cells, endogenous peptide and b2m stripped at pH 3.3, purified b2m added back; also called product of an HLA-A*24:02 gene; allele A*24:02
protocol-notes: flow cytometry, C1R-A24 cells;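 note: Read-out was the amount of peptide–MHC complex on each cell, taken as the fluorescence intensity of a bound fluorescent antibody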
quantity-name: log10 Kd (M)

Guide cases for log10 Kd (M), answers given:
>>> df
                                     binder  readout_value
0  ASPSHMTSM (synthetic 9-mer derived from Helios) [peptide of SEQ ID NO: 81]           > -3
1  GRVMQIDGV (synthetic 9-mer derived from Wnt5a) [peptide of SEQ ID NO: 68]          -4.63
2  LHEEHGATL (synthetic 9-mer derived from EVC2) [peptide of SEQ ID NO: 79]           > -3
3  GILSDHQQS (synthetic 9-mer derived from Casp-8) [peptide of SEQ ID NO: 74]           > -3

Now turn to the next binder.
In: Given the binder LLITRKSFI (synthetic 9-mer derived from Fas; also called A10) [peptide of SEQ ID NO: 16] , what is its reported log10 Kd (M)?
Out: -6.64
